FYI, the data here is from patent US20260207767A1.

Biological target: T1, cynoPD-1 His (AcroBiosystems PD1-C5223) (cynomolgus monkey, UniProt B0LAJ3 25-170)
T1 construct: also called cPD-1; cynomolgus PD-1 His-tagged
T1 sequence (B0LAJ3 entry or part of it limits assumed): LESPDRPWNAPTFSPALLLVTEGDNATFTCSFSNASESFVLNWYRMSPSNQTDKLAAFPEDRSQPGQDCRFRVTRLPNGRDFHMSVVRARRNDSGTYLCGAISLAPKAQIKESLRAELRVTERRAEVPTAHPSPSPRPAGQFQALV
Experiment: SPR, Ab captured, PD-1 analyte
Returns one of 1 or 0; 1 when kon is >= 60000 M⁻¹ s⁻¹.

binder	qualitative-label
z0-XVT458 (antibody, human IgG1, kappa, V domains shown, hIgG1; also called GH + uVL) VH: QVQLVQSGAEVKKPGASVKVSCKASGYTFTNFYIHWVRQAPGQGLEWMGSIYPNYGDTAYNQKFKDRVTMTTDTSTSTAYMELRSLRSDDTAVYYCARGYSYAMDYWGQGTTVTVSS VL: DIQMTQSPSSVSASVGDRVTITCSASQGISGDLNWYQQKPGKAPKLLIYHTSSLHSGVPSRFSGSGSGTDFTLTISSLQPEDFATYYCQYYSKDLLTFGGGTKLEIKR	1

Attention now shifts to the item below.
Task: Check this binder for kon at or above 60000 M⁻¹ s⁻¹: z2-XVT458 (antibody, IgG1, V domains shown, full hIgG1; also called XVT458-z2; GH + T071V) VH: QVQLVQSGAEVKKPGASVKVSCKASGYTFTNFYIHWVRQAPGQGLEWMGSIYPNYGDTAYNQKFKDRVTMTVDTSTSTAYMELRSLRSDDTAVYYCARGYSYAMDYWGQGTTVTVSS VL: DIQMTQSPSSVSASVGDRVTITCSASQGISGDLNWYQQKPGKAPKLLIYHTSSLHSGVPSRFSGSGSGTDFTLTISSLQPEDFATYYCQYYSKDLLTFGGGTKLEIK
Result: 0
